Target: SGK (Homo sapiens, UniProt O00141, S422D)
Construct: made in house; host or cells: human embryonic kidney 293 cells (pEBG-2T vector)
Sequence (O00141 61-431 S422D): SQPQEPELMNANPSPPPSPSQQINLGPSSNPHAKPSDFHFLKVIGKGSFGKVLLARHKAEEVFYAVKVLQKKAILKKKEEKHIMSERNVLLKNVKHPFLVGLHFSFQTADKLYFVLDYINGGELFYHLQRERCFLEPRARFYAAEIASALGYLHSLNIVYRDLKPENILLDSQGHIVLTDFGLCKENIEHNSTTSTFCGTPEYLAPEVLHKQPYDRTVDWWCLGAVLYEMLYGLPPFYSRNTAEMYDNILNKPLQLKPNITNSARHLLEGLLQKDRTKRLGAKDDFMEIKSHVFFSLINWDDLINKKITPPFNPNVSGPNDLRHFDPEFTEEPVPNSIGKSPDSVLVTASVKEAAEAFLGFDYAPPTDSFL
Assay: Activity of SGK towards synthetic peptides related to Crosstide
Type: biochemical
Conditions: GST-ΔN-SGK from 293 cells activated by PDK1; each peptide 30 μM
Method: Phosphorylation and assay of SGK. Phosphorylation was carried out at 30° C. in 50 μl incubations containing 50 mM Tris/HCl pH 7.5, 0.1 mM EGTA, 0.1% (v/v) 2-mercaptoethanol, 2.5 μM PKI, 1 μM microcystin-LR, 10 mM magnesium chloride and 100 μM ATP. Where indicated lipid vesicles containing phosphatidylcholine (100 μM), phosphatidyl serine (100 μM) and PtdIns(3,4,5)P3 (1 μM) were also included. SGK activity was assayed exactly as described for PKB [6] using the peptide […] […]
Reported SGK activity relative to peptide 1 (Crosstide) by item:
Numbers only here, please. The scale is %.

Example entries begin here.
> print(dat)
                                   substance  resultnumber
 1          RPRTSSV [Peptide 12, ID; NO: 41]           131
 2  GRPRTSSFAEG [Peptide 1, ID; NO: 30, reference compound]           100
 3          RPRTSSK [Peptide 14, ID; NO: 43]           146
 4                       RPRAATF [Peptide 7]            73
 5            RPRTSS [Peptide 5, ID; NO: 31]            10
 6          RPRTSSE [Peptide 15, ID; NO: 44]            84
 7          RPRTSSL [Peptide 11, ID; NO: 40]           135
 8           RPRTSTF [Peptide 6, ID; NO: 35]           156
 9          RPRTSSA [Peptide 13, ID; NO: 42]           107
10           RPKTSSF [Peptide 9, ID; NO: 38]            49

# SGK activity relative to peptide 1 (Crosstide) (substance: RPRTSSF [Peptide 2, ID; NO: 39] ) is 154

Short answer for KPRTSSF [Peptide 8, ID; NO: 37] : SGK activity relative to peptide 1 (Crosstide) was 2

----------
Parameter: SGK3 activity % relative to peptide 1 (Crosstide). Scope: all listed entries.
Target: SGK3 (Homo sapiens, UniProt Q96BR1, S486D)
Construct: SGK3 lacking the N-terminal 52 residues (ΔN-SGK3[53–429]); made in house; host or cells: 293 cells (pEBG-2T-2 vector)
Sequence (Q96BR1 120-496 S486D): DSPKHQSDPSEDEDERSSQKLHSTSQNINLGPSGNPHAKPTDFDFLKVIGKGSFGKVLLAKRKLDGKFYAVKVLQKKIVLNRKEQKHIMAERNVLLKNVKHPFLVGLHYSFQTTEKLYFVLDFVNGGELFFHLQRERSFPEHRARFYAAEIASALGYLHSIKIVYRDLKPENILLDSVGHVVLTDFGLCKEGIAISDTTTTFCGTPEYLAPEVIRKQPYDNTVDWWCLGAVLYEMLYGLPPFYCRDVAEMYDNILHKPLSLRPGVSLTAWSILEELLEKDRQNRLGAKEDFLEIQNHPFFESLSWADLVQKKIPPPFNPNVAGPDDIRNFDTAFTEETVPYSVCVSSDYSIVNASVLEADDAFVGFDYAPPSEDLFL
Test: Activity of SGK3 toward synthetic peptides related to Crosstide
Type: biochemical
Settings: GST-ΔN-SGK3[S419D] from 293 cells; each peptide 30 μM; average of two experiments
The reply should be a number in %, with the unit left off.

Known results for substances:
> print(dat)
                          substance  quantityunit  resultnumber
1  RPRTSSK [Peptide 14, ID; NO: 43]             %           200
2  RPRTSSA [Peptide 13, ID; NO: 42]             %           123

Would you kindly look at the next entry?
In plain terms, RPRTSTF [Peptide 6, ID; NO: 35] has a documented SGK3 activity % relative to peptide 1 (Crosstide) of 156

----------
Target: SGK3 (Homo sapiens, UniProt Q96BR1, S486D)
Construct: SGK3 lacking the N-terminal 52 residues (ΔN-SGK3[53–429]); made in house; host or cells: 293 cells (pEBG-2T-2 vector)
Sequence (Q96BR1 120-496 S486D): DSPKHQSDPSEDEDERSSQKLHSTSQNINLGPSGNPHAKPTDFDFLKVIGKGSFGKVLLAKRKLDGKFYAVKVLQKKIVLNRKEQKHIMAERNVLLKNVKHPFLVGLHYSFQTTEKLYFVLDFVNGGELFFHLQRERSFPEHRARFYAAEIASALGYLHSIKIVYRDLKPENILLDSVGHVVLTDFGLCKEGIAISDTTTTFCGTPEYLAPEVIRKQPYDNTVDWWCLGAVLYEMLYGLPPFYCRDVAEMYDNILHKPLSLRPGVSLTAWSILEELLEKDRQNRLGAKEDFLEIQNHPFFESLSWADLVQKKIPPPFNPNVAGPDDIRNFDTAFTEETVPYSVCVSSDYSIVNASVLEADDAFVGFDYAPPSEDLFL
Test: Activity of SGK3 toward synthetic peptides related to Crosstide
Assay type: biochemical
Conditions: GST-ΔN-SGK3[S419D] from 293 cells; each peptide 30 μM; average of two experiments
// assign class 1 if SGK3 activity % relative to peptide 1 (Crosstide) falls strictly below 70%, else class 0 (ties count as class 0)

> print(dat)
                          substance  assignedlabel
1  RPRTSSL [Peptide 11, ID; NO: 40]        class 0
2   RPKTSSF [Peptide 9, ID; NO: 38]        class 1
3  RPRTSSE [Peptide 15, ID; NO: 44]        class 1
4   RPRTSSF [Peptide 2, ID; NO: 39]        class 0
5    PRTSSF [Peptide 4, ID; NO: 33]        class 1

Would you kindly verify if SGK3 activity % relative to peptide 1 (Crosstide) of RPRTSS [Peptide 5, ID; NO: 31] is strictly less than 70%?
class 1

Check if SGK3 activity % relative to peptide 1 (Crosstide) falls below 70% for RPRTSAF [Peptide 3, ID; NO: 32] .
class 1

In plain terms, does KPRTSSF [Peptide 8, ID; NO: 37] come in under 70% for SGK3 activity % relative to peptide 1 (Crosstide)?
class 1

I wonder whether GRPRTSSFAEG [Peptide 1, ID; NO: 30, reference compound] has SGK3 activity % relative to peptide 1 (Crosstide) below 70%. Can you tell?
class 0

For this substance, is SGK3 activity % relative to peptide 1 (Crosstide) lower than 70%? RPRTSSV [Peptide 12, ID; NO: 41]
class 0
